Tested on: Plasmodium falciparum
assayName: GSK_TCMDC: Inhibition of Plasmodium falciparum 3D7 in whole red blood cells, using parasite LDH activity as an index of growth. Test compounds present at 2uM
Format: functional
observedProperty: Inhibition (%)
The figure you give is taken to be in %; do not add the unit.

Give the measured Inhibition of `Br.Cc1cc(Br)c(OCCCON2C(=N)N=C(N)NC2(C)C)c(Br)c1` .
95

Give the measured Inhibition of `Cc1cccc2nc(-c3ccc(-c4ccc(NC(=O)Nc5ccc(Cl)c(Cl)c5)cc4)s3)[nH]c12` .
100

Give the measured Inhibition of `O=C(/C=C/c1ccc(C(F)(F)F)cc1)NCCCCCN1CCCN(C(=O)Nc2ccc(F)c(Cl)c2)CC1` .
100

Give the measured Inhibition of COc1cc(Nc2nccc(NCC(O)c3ccc(C(F)(F)F)cc3)n2)cc(OC)c1OC (stereo not given) .
91

Give the measured Inhibition of `COc1ccc(NS(=O)(=O)c2ccccc2Br)cc1N1CCN(C)CC1.Cl` .
94

Give the measured Inhibition of `Cc1cccc2nc(-c3ccc(-c4cccc(NC(=O)NCc5ccccc5)c4)cc3)[nH]c12` .
95

Give the measured Inhibition of `Nc1nccc2ccc(OC3CCCCC3)cc12.O=CO` .
98

Give the measured Inhibition of `COc1cc(N(Cc2ccccc2C)S(=O)(=O)Cc2ccccc2[N+](=O)[O-])c(OC)cc1Cl` .
94

Give the measured Inhibition of Cc1c[nH]c(-c2cccc(C(=O)NC3CCC(CCN4CCc5ccc(C#N)cc5CC4)CC3)c2)n1.Cl (stereo not given) .
100

Give the measured Inhibition of `COc1ccc(-c2cccc(NC(=O)c3cccc(C#N)c3)c2)cc1CN1CCCN(C)CC1.O=C(O)C(F)(F)F` .
100

Give the measured Inhibition of `CCCCn1c(SC(C)C)nc2c(c1=O)C1(CCCCC1)Cc1ccccc1-2` .
99

Give the measured Inhibition of `C[C@@H](Oc1cc(-n2cnc3ccc(NC(=O)NC(C)(C)C)cc32)sc1C(N)=O)c1ccccc1Cl` .
95

Give the measured Inhibition of `Cc1ccc(C(=O)Nc2ccc(Nc3ccnc4cc(-c5nccs5)ccc34)cc2O)cc1.Cl` .
100

Give the measured Inhibition of `FC(F)(F)c1ccc2[nH]c(-c3ccc(-c4ccc(CN5CCN(c6ccncc6)CC5)cc4)cc3)nc2c1.O=C(O)C(F)(F)F` .
100

Give the measured Inhibition of `COc1ccc(-c2cc(C(=O)N[C@@H](Cc3ccccc3)C(=O)NCCN3CCCCC3)ccc2O)cc1` .
96

Give the measured Inhibition of `Cc1cc(C(=O)Nc2ccc(OCc3ccccc3)cc2)on1` .
87

Give the measured Inhibition of `O=C(Nc1nccs1)c1cn(-c2ccccc2)nc1-c1ccc(Cl)s1` .
96

Give the measured Inhibition of `Cn1c(=O)c2cc(C(=O)NCCCN3CCCCCC3)sc2c2ccccc21` .
99

Give the measured Inhibition of `NS(=O)(=O)NCCCN1CCN(c2ccccc2)CC1` .
90

Give the measured Inhibition of `Fc1ccc(C=NN=c2cc[nH]c3ccc(C(F)(F)F)cc23)cc1` .
90

* * *

Provide the recorded Inhibition for the entries that follow.
Tested on: Plasmodium falciparum
assayName: GSK_TCMDC: Inhibition of Plasmodium falciparum Dd2 in whole red blood cells, using parasite LDH activity as an index of growth. Test compounds present at 2uM
Type: functional
The figure you give is taken to be in %; do not add the unit.

Give the measured Inhibition of CCCCCCCN1CC[C@@H](CCC(O)c2ccnc3ccc(OC)cc23)[C@@H](CC)C1 (some centres not stated) .
93

Give the measured Inhibition of `COc1ccc(C(=O)Nc2nonc2-c2ccc(OC)c(OC)c2)cc1Cl` .
97

Give the measured Inhibition of `Fc1cc(Cl)ccc1Nc1ccnc2cc(I)ccc12` .
10

Give the measured Inhibition of COc1cc(Nc2nccc(NCC(O)c3ccc(C(F)(F)F)cc3)n2)cc(OC)c1OC (configuration not stated) .
14

Give the measured Inhibition of `C=CCOc1ccc(Cc2cnc(N)nc2N)cc1CCC` .
0

Give the measured Inhibition of `Cc1ccc(NC(=O)c2ccc(N3CCC(c4ccccc4C)CC3)nc2)cc1.O=C(O)C(F)(F)F` .
72

Give the measured Inhibition of COc1cc(C2C(Oc3ccccc3)C(=O)N2Cc2ccc(F)cc2)cc(OC)c1OC (configuration not stated) .
97

Give the measured Inhibition of Cl.c1ccc(CC2=NCCN2)cc1 [TOLAZOLINE HYDROCHLORIDE] .
0

Give the measured Inhibition of `O=C(NCCc1ccccc1)N(Cc1cccc(-c2ccc(CNCc3ccc4c(c3)OCO4)cc2)c1)C1CCN(Cc2ccccc2)CC1.O=C(O)C(F)(F)F` .
70

Give the measured Inhibition of `CC(C)OC(=O)c1cccnc1SCC(=O)Nc1ccc(C(F)(F)F)cc1Cl` .
88

Give the measured Inhibition of `NC(=O)c1cccc(C(=O)Nc2cccc(-c3ccc(-c4nc5ccccc5[nH]4)s3)c2)c1` .
69

Give the measured Inhibition of `COc1cc(Nc2nc(N)n(C(=O)c3ccc4c(c3)OCO4)n2)cc(OC)c1OC` .
40

Give the measured Inhibition of `O=C(O)C(F)(F)F.OCCN1CCN(Cc2ccc(-c3ccc(-c4nc5cc(C(F)(F)F)ccc5[nH]4)s3)cc2)CC1` .
99

Give the measured Inhibition of COc1ccc(CN2CCC(CNC(C)c3cccc4ccccc34)CC2)cc1.O=C(O)C(F)(F)F (configuration not stated) .
26

Give the measured Inhibition of `O=C(O)C(F)(F)F.c1cc(-c2ccc(CNC3CCOCC3)cc2)cc(-c2nc3ccccc3[nH]2)c1` .
100

Give the measured Inhibition of `COc1ccc2nccc([C@@H](O)CN3CCC(NC(=O)c4cc5c(Cl)cc(Cl)cc5[nH]4)CC3)c2c1` .
98

Give the measured Inhibition of `Cc1cccc2nc(-c3cccc(-c4cccc(CNCc5cccc(N)c5)c4)c3)[nH]c12.O=C(O)C(F)(F)F` .
73

Give the measured Inhibition of `COc1ccc(Cn2c(Nc3cccc(C(F)(F)F)c3)nc3cc(C(=O)NC(C)C)cnc32)cc1Cl` .
81

Give the measured Inhibition of `CN(C)CCOc1ccc(N2CCN(CCCCNC(=O)c3ccc(/C=C/c4cc(Cl)cc(Cl)c4)cc3)CC2)cc1` .
84

Give the measured Inhibition of `Cc1ccc(C2CCN(CCCCNC(=O)c3ccc(-c4ccc(C(F)(F)F)cc4)cc3)CC2)c(O)c1` .
49

Give the measured Inhibition of `Cc1ccc(NC(=O)c2ccc(NCCCN(C)Cc3ccccc3)c([N+](=O)[O-])c2)cc1F` .
61

Give the measured Inhibition of `O=C(C=Cc1ccc(Cl)c(Cl)c1)NCCCCCN1CCC(CCNC(=O)c2ccc3c(c2)OCO3)CC1` .
2

Give the measured Inhibition of `CC(C)(C)c1cc(C(=O)N2CCN(c3ccc(C(F)(F)F)cn3)CC2)n(Cc2ccc(F)cc2)n1` .
26

Give the measured Inhibition of `CC(C)(C)C(=O)N1CCN(c2ccc([N+](=O)[O-])c(NC3CC3)c2)CC1` .
97

Give the measured Inhibition of COc1cccc(C2=CC(c3ccccc3)n3ncc(C(=O)Nc4ccc(Cl)cc4)c3N2)c1 (configuration not stated) .
28

Give the measured Inhibition of `Cc1cccc(-c2c(C)nc(N)nc2N)c1` .
0

Give the measured Inhibition of `COc1ccc(NC(=O)/C=C/c2ccc(Oc3ccccc3Cl)c([N+](=O)[O-])c2)cc1OCCN(C(C)C)C(C)C` .
97

Give the measured Inhibition of `Cc1cc(O)c(CNC2CCCCC2)cc1C.Cl` .
95

Give the measured Inhibition of `COc1cc(CNCCC(C)C)ccc1OCc1cccc(COc2ccc(CNCCC(C)C)cc2OC)c1.Cl` .
20

Give the measured Inhibition of COC(=O)C(NC(=O)NC1CCN(c2ccnc(Nc3ccc(F)cc3)n2)C1)c1ccccc1 (configuration not stated) .
8

Give the measured Inhibition of `Cl.N=C(N)c1ccc2[nH]c(SCc3ccccc3)nc2c1` .
100

Give the measured Inhibition of `COc1ccc(-c2cccc(NC(=O)c3cccc(C#N)c3)c2)cc1CN1CCN(C)CC1.O=C(O)C(F)(F)F` .
16

Give the measured Inhibition of `NC(=O)c1cccc(C(=O)Nc2cccc(-c3cccc(-c4nc5cc(C(F)(F)F)ccc5[nH]4)c3)c2)c1` .
85

Give the measured Inhibition of `Oc1cc(Nc2ccnc3cc(-c4cccc(CN5CCCCC5)c4)ccc23)c(F)cc1Cl` .
100

Give the measured Inhibition of `O=C(/C=C/c1ccc(C(F)(F)F)cc1)N1CCC(CCN2CCC(c3c[nH]c4ccccc34)CC2)CC1` .
77

Give the measured Inhibition of COc1cc(C(=O)N2CCOC(CCN3CCc4c(c5ccccc5n4C)C3)(c3ccc(Cl)c(Cl)c3)C2)cc(OC)c1OC (configuration not stated) .
68

Give the measured Inhibition of `NC(=O)c1cc2nc(Nc3ccc(F)cc3)nc(Nc3ccc(S(N)(=O)=O)cc3)c2[nH]1.O=CO` .
99
